- Measurement notes: in vitro
- Test context: human, hela cells, % viability
Each record here notes measured viability at 28.5 h, 10 µM.
// return numeric value only (unit: %, not printed)

Example entries and their recorded answers appear below.
Molecule: CCCC(CCC(=O)Nc1ccccc1Cl)C(=O)O (stereo not shown)
viability at 28.5 h, 10 µM (%): 120
--
Molecule: CC(=O)N1CCC(N[C@H]2C[C@@H](Cc3cc(CN4CCCCC4)on3)C2(C)C)CC1
viability at 28.5 h, 10 µM (%): 89
--
Molecule: Cc1cc(C)nc(N2CCN(C(=O)CCC(=O)NCc3cccc(C(F)(F)F)c3)CC2)n1
viability at 28.5 h, 10 µM (%): 107

Problem: Fill in: viability at 28.5 h, 10 µM of Cn1cccc1C(=O)OCC(=O)N1CCCCC1 is ___
Solution: 99.5

Problem: Next molecule up: Brc1cccc(CSc2nnc(COc3ccccc3)n2Cc2ccccc2)c1
Solution: 113

Problem: Next molecule up: O=C(CN1C(=O)c2ccccc2C1=O)N1CCN(Cc2ccc3c(c2)OCO3)CC1
Solution: 97.3

Problem: Next molecule up: COc1ccc(CCC(=O)NCC(c2cccs2)N2CCOCC2)cc1 (stereo not shown)
Solution: 107

Problem: Next molecule up: CCCN1CCC(CNC(=O)c2cc3ccc(OC)cc3n2C)CC1
Solution: 99.9

Problem: Next molecule up: Cc1nn(CC(=O)C(C)(C)C)c(=O)c2cc3sccc3n12
Solution: 87.2

Problem: Next molecule up: O=C(CO)N1CC2(CCN(CCn3cccc3)CC2)c2ccccc21
Solution: 86.9

Problem: Next molecule up: O=C(CN1C(=O)C2C3c4ccccc4C(c4ccccc43)C2C1=O)OCC(=O)c1ccc(F)cc1 (stereo not shown)
Solution: 106

Problem: Next molecule up: COc1ccc(S(=O)(=O)NC(=O)NCC2CC3C=CC2C3)cc1 (stereo not shown)
Solution: 88.7

====

- Measurement notes: in vitro
- Test context: human, hela cells, % viability
Under this convention, Satisfied denotes viability at 28.5 h, 10 µM strictly below 90% and Not satisfied denotes viability at 28.5 h, 10 µM at or above 90%.

Compound: COc1ccc(C(=O)OC(C)(C)C)c(-c2cncc(N3CCCCC3CCO)n2)c1 (stereo not shown)
Class label: Not satisfied
//
Compound: CN1CCC[C@H]1C(=O)Nc1ccc2[nH]ccc2c1
Class label: Not satisfied
//
Compound: CCOC(=O)N1CCC(NS(=O)(=O)Cc2ccccc2[N+](=O)[O-])CC1
Class label: Not satisfied

Problem: State whether 90% exceeds viability at 28.5 h, 10 µM recorded for CCCCC(=O)N(C)c1c(C)nc2ccc(C(=O)NCc3cccs3)cn12 .
Solution: Not satisfied

Problem: Next compound up: O=C(O)CNS(=O)(=O)c1ccc2nc(O)c(O)nc2c1
Solution: Not satisfied

====

- Measurement notes: in vitro
- Test context: human, hela cells, % viability
Each record here notes measured viability at 28.5 h, 10 µM.
// return numeric value only (unit: %, not printed)

Example entries and their recorded answers appear below.
Compound: NC(=O)c1ccccc1OCCO
Reported property: viability at 28.5 h, 10 µM
Measurement: 87.8

Compound: CC(C)(C)OC(=O)N1CCC(CNS(=O)(=O)c2ccc3c(c2)OCCO3)CC1
Reported property: viability at 28.5 h, 10 µM
Measurement: 90.6

Compound: Cc1ccccc1C(=O)N1CCN(Cc2cc(=O)n3ccsc3n2)CC1
Reported property: viability at 28.5 h, 10 µM
Measurement: 90.9

Compound: CCN1CCCC1CN(Cc1ccncc1)Cc1ccoc1 (stereo not drawn)
Reported property: viability at 28.5 h, 10 µM
Measurement: 91

Compound: Cc1ccc2c(c1)CC(=O)NC21CCN(CCc2noc3ccccc23)CC1
Reported property: viability at 28.5 h, 10 µM
Measurement: 92.2

Problem: Fill in: viability at 28.5 h, 10 µM of O=C(CN1CCCc2ccccc21)c1ccsc1 is ___
Solution: 91.5

Problem: Next compound up: O=C(N[C@@H](Cn1cc(Cl)c(=O)[nH]c1=O)C(=O)O)C1CCC1
Solution: 89.2

Problem: Next compound up: O=C(COc1ccc(F)cc1)Nc1ccc2ncccc2c1
Solution: 85.7

Problem: Next compound up: CCCCCCN1CCC2CN(CCCC(=O)c3ccc(F)cc3)CCN2C1=O (stereo not drawn) [CBK024890C]
Solution: 99

====

- Measurement notes: in vitro
- Test context: human, hela cells, % viability
Reported property: viability at 28.5 h, 10 µM (%)
// return numeric value only (unit: %, not printed)

Example entries and their recorded answers appear below.
Molecule: Cc1ccc(OCCCC(=O)N2CCCc3c(cnn3C)C2)c(C)c1 [CBK285288]
Reported property: viability at 28.5 h, 10 µM
Measurement: 96.9

Molecule: O=C(NCCN1CCC(O)(c2cccc(F)c2)CC1)C1CCCCC1 [CBK283281]
Reported property: viability at 28.5 h, 10 µM
Measurement: 96.2

Problem: Fill in: viability at 28.5 h, 10 µM of Oc1ccc(-c2cncc(-c3ccc(CN4CCOCC4)cc3)n2)cc1 [CBK123787] is ___
Solution: 104

====

- Measurement notes: in vitro
- Test context: human, hela cells, % viability
Each record here notes measured viability at 28.5 h, 10 µM.
// return numeric value only (unit: %, not printed)

Example entries and their recorded answers appear below.
Compound: O=C(Nc1cccc(CCc2ccccn2)c1)Nc1cccc2ccccc12
Measurement: 87.7

Compound: CC(Sc1nc2ccc(Cl)cc2o1)C(=O)N1CCOCC1 (stereo not drawn)
Measurement: 92.1

Could you now look at the following compound, please?
Problem: Fill in: viability at 28.5 h, 10 µM of CN(C)CCN(C)C(=O)c1ccc(-c2ccccc2)nc1N(C)C is ___
Solution: 88.1

====

- Measurement notes: in vitro
- Test context: human, hela cells, % viability
Each record here notes measured viability at 28.5 h, 10 µM.

Example entries and their recorded answers appear below.
Molecule: C=C(C)CN1CCN(C(=O)c2[nH]c3ccc(OCC)cc3c2C)CC1 [CBK282666]
viability at 28.5 h, 10 µM: 96.7%
//
Molecule: C=C(C)CN1CCN(C(C(=O)O)c2c[nH]c3cc(F)ccc23)CC1 (stereo not drawn) [CBK286835]
viability at 28.5 h, 10 µM: 106%

Problem: Fill in: viability at 28.5 h, 10 µM of CC(C)C[C@H](NC(=O)NCCN1CCOCC1)C(=O)O [CBK286619] is ___
Solution: 99.4%

====

- Measurement notes: in vitro
- Test context: human, hela cells, % viability
Each record here notes measured viability at 28.5 h, 10 µM.

Example entries and their recorded answers appear below.
Molecule: CS(=O)(=O)c1ccc(Nc2ncnc(N3CCC(Sc4ccccc4)CC3)c2[N+](=O)[O-])cc1
viability at 28.5 h, 10 µM: 92.8%
--
Molecule: CN1C(=O)COc2ccccc2CCCC[C@@H]2[C@H]1CCCN2CC(N)=O
viability at 28.5 h, 10 µM: 105%
--
Molecule: CCN1CCN(C(=O)C2CCCCC2C(=O)O)CC1 (stereo not drawn)
viability at 28.5 h, 10 µM: 111%
--
Molecule: COc1cc(/C=N/NC(=O)c2ccccn2)ccc1OC(=O)c1cccc2ccccc12
viability at 28.5 h, 10 µM: 94.4%

Problem: Fill in: viability at 28.5 h, 10 µM of CCn1c(=O)oc2cc(NC(=O)NCCCc3csc(N)n3)ccc21 is ___
Solution: 79.7%

Problem: Next molecule up: O=C(c1ccc(-c2nccnc2NCC2CC2)cc1)N1CCOCC1
Solution: 88.8%

Problem: Next molecule up: Clc1ccc(-c2ccc(CNCCCN3CCOCC3)o2)cc1 [CBK269562C]
Solution: 90.5%

Problem: Next molecule up: O=C(C1CC2C=CC1C21CC1)N1CCN(c2nccs2)CC1 (stereo not drawn)
Solution: 90.4%

Problem: Next molecule up: CC(=O)NC(=S)Nc1ccc(Oc2ccccc2)cc1
Solution: 86.6%

Problem: Next molecule up: O=S(=O)(CC(F)(F)F)Nc1cccc2cc[nH]c12
Solution: 99.5%

Problem: Next molecule up: CCCc1cc(O)nc(SCCCCn2ccnc2C)n1
Solution: 107%

Problem: Next molecule up: CN1CCN(C(=O)c2[nH]c3ccccc3c2NS(=O)(=O)c2cc(F)c(Br)cc2F)CC1
Solution: 90.5%

Problem: Next molecule up: COc1ccc(OC)c(C2C(C(=O)c3ccccc3)=C(O)C(=O)N2CCN2CCOCC2)c1 (stereo not drawn)
Solution: 114%

Problem: Next molecule up: CN(Cc1ccc(Cl)c(F)c1)C(=O)c1cn[nH]c1C1CCCCN1 (stereo not drawn)
Solution: 103%

Problem: Next molecule up: O=C(COc1ccccc1O)NCCN1CCOCC1 [CBK262243C]
Solution: 84%
